- systemTested: human ether-à-go-go-related gene (hERG) potassium channel (human)
- assayNotes: primary screen, population patch clamp on CHO cells stably expressing hERG; higher = less effect of the substance
- Procedure: Briefly, Chinese hamster ovary (CHO) cells stably expressing the hERG channel were dislodged from tissue culture flasks and dispensed into PPC plates. […] During the recording, background leak currents were estimated by a 100 ms step to -80 mV from an initial holding potential of -70 mV and subtracted from the subsequent current measurement. The campaign was conducted in two phases using slight differences in recording protocol. […]
In all, about 310,000 compounds went through this assay and about 14,000 (4.5%) showed an effect of 50% or more. Effects have a minus sign here. Many of the other results were omitted from the sample, so strong results are more common in it than they were.
readoutKind: hERG current change (%, negative = inhibition) at 10uM (%)
Value expressed in %; do not type the unit.

1. O=C(CCSCCc1ccccn1)Nc1nccs1 | 30.1

# input for lookup
Inquiry: So what's the measured hERG current change (%, negative = inhibition) at 10uM for this one? CCN1CCc2c(sc(NC(=O)Cc3ccccc3)c2C(=O)OC)C1.Cl
Reply text: -51.5

----------
- systemTested: human ether-à-go-go-related gene (hERG) potassium channel (human, UniProt Q12809)
- Sequence (Q12809 whole entry, looked up): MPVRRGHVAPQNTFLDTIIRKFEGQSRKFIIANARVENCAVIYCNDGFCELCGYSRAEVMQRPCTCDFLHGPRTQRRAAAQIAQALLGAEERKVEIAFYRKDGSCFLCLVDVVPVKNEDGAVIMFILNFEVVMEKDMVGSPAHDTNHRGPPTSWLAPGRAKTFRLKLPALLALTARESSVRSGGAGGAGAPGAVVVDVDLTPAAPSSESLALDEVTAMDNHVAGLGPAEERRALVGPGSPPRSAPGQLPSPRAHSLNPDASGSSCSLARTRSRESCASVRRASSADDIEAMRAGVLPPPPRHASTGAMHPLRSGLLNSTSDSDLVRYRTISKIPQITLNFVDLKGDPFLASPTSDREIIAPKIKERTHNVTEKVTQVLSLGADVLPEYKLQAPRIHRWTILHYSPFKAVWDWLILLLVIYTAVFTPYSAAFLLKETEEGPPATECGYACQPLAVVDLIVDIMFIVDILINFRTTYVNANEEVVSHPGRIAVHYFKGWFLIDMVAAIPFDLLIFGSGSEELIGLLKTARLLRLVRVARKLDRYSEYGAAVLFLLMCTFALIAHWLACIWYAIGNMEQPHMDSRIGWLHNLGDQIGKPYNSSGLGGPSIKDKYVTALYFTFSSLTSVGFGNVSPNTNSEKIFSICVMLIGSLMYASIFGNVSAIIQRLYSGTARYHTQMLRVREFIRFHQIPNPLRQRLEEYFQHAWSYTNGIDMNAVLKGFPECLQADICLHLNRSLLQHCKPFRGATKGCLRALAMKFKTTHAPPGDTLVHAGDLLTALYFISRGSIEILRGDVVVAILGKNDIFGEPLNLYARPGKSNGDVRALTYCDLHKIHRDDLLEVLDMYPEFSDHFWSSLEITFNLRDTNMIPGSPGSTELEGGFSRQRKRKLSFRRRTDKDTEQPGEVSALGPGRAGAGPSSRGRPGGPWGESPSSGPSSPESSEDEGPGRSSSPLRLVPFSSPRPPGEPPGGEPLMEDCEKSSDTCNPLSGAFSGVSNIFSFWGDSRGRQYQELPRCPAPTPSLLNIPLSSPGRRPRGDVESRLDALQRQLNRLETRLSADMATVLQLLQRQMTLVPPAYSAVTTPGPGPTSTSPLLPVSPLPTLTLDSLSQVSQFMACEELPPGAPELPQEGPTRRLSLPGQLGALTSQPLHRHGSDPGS
- assayNotes: primary screen, population patch clamp on CHO cells stably expressing hERG; higher = less effect of the substance
The campaign covered roughly 310,000 compounds. About 14,000 (4.5%) showed an effect of 50% or more. Effects have a minus sign here. The sample as a whole holds a higher share of strong results than the screen did.
Measured hERG current change (%, negative = inhibition) at 10uM by item
The response must be a number in % with no trailing unit.

1. CC(=O)N(Cc1ccccc1)c1ccccc1C(=O)O | 13.1

Inquiry: What hERG current change (%, negative = inhibition) at 10uM value was documented for this compound, Cl.N=c1n(CCN2CCCCC2)c2ccccc2n1CC(O)c1ccco1 (stereo not drawn) ?
Reply text: -55.2

Inquiry: Looking for the measured hERG current change (%, negative = inhibition) at 10uM of O=C(NCc1nc(-c2ccc(C(F)(F)F)cc2)no1)c1cccs1 , can you help?
Reply text: 5.51

----------
- systemTested: human ether-à-go-go-related gene (hERG) potassium channel (human, UniProt Q12809)
- assayNotes: primary screen, population patch clamp on CHO cells stably expressing hERG; higher = less effect of the substance
The whole screen tested about 310,000 compounds, of which about 14,000 (4.5%) showed an effect of 50% or more. Effects have a minus sign here. This is one part of a sample in which strong results are shown more often than they occur.
Please use Yes whenever hERG current change (%, negative = inhibition) at 10uM is not below -20%, and No whenever it is.

The following compounds have reported results that may help.
1. Cc1ccc2cccnc2c1N | Yes
2. Fc1ccc(C(c2nnnn2Cc2cccs2)N2CCN(c3ccccc3)CC2)cc1 (stereo not drawn) | No
3. C=CC(C)(C)c1[nH]cnc1/C=C1\NC(=O)C(C(C)C)NC1=O (stereo not drawn) | Yes
4. CCN(CC(=O)NC(C)(C)C)C(=O)c1ccc(Br)cc1 | Yes

Inquiry: Is reported hERG current change (%, negative = inhibition) at 10uM greater than or equal to -20% here: Cc1ccc(CN(CC(=O)NCc2ccccn2)S(=O)(=O)c2ccccc2)cc1
Reply text: No

Inquiry: Does CN(C)CCO[C@@H](c1ccc(Cl)cc1)c1ccccn1.O=C(O)/C=C\C(=O)O have a reported hERG current change (%, negative = inhibition) at 10uM of at least -20%?
Reply text: No

----------
- systemTested: human ether-à-go-go-related gene (hERG) potassium channel (human, UniProt Q12809);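 note: peak tail current of the secondary pulse compared with the same well before compound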
- assayNotes: primary screen, population patch clamp on CHO cells stably expressing hERG; higher = less effect of the substance
Screen size: about 310,000 compounds; about 14,000 (4.5%) showed an effect of 50% or more. The effect is printed as a negative number. The list comes from a sample in which strong results are over-represented; it also holds close analogues and randomly drawn compounds.
readoutKind: hERG current change (%, negative = inhibition) at 10uM (%)
The response must be a number in % with no trailing unit.

1) Cc1cnc(NC(=O)CN2CCN(c3ccccc3F)CC2)s1.Cl | 12.2

Inquiry: // lookup hERG current change (%, negative = inhibition) at 10uM for Cc1ccc(CS(=O)Cc2ccc(C(=O)NC3CCCCC3)o2)cc1 (stereo not drawn)
Reply text: 2.31

Inquiry: # query: hERG current change (%, negative = inhibition) at 10uM of entry COc1ccc(S(=O)(=O)NCc2cccs2)cc1
Reply text: 2.67

----------
- systemTested: human ether-à-go-go-related gene (hERG) potassium channel (human);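 note: peak tail current of the secondary pulse compared with the same well before compound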
- assayNotes: primary screen, population patch clamp on CHO cells stably expressing hERG; higher = less effect of the substance
The whole screen tested about 310,000 compounds, of which about 14,000 (4.5%) showed an effect of 50% or more. The effect is printed as a negative number. The entries come from a sample that favours strong results as a whole.
readoutKind: hERG current change (%, negative = inhibition) at 10uM (%)
Please respond with the number in % and leave the unit unwritten.

As a guide, the following entries are already answered.
1. CCOC(=O)c1ccccc1N/C=C/C(=O)c1cccs1 | -14.9
2. COc1ccc(S(=O)(=O)NCc2cccnc2)cc1C(=O)Nc1ccccc1 | -47.9
3. O=c1cc(N2CCN(Cc3ccccc3)CC2)c(-c2ccccc2)n[nH]1 | -1.87

Inquiry: Which hERG current change (%, negative = inhibition) at 10uM value belongs to O=C(Nc1ccccn1)c1ccc2c(c1)OCCO2 ?
Reply text: 11.5

----------
- systemTested: human ether-à-go-go-related gene (hERG) potassium channel (human, UniProt Q12809);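 note: peak tail current of the secondary pulse compared with the same well before compound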
- assayNotes: primary screen, population patch clamp on CHO cells stably expressing hERG; higher = less effect of the substance
In all, about 310,000 compounds went through this assay and about 14,000 (4.5%) showed an effect of 50% or more. Effects have a minus sign here. This is one part of a sample in which strong results are shown more often than they occur.
readoutKind: hERG current change (%, negative = inhibition) at 10uM
Give me the value, and tack the unit on after it.

Inquiry: I am curious: what hERG current change (%, negative = inhibition) at 10uM value has been reported for c1ccc2c3c([nH]c2c1)C1(CCNCC1)NCC3 ?
Reply text: -6.06%

Inquiry: # get_value(readout='hERG current change (%, negative = inhibition) at 10uM', item= Oc1ccc(Cl)cc1C1=NNC(c2cccs2)C1 (centres unmarked) )
Reply text: 9.76%

Inquiry: Entry Cc1ccc(N(CC(=O)NCc2ccco2)C(=O)CCC(=O)Nc2nccs2)c(C)c1 : reported hERG current change (%, negative = inhibition) at 10uM = ?
Reply text: -22.5%

Inquiry: Data request, read-out hERG current change (%, negative = inhibition) at 10uM, for C=CCNC(=O)c1cc2c(=O)n3cc(C)ccc3nc2nc1NCC1CCCO1 (centres unmarked)
Reply text: -73%

Inquiry: Fill in: hERG current change (%, negative = inhibition) at 10uM of CC1(C)Cc2c(cnn2-c2cccc(F)c2)C(NC(=O)CCc2cnccn2)C1 (centres unmarked) is ___
Reply text: -28.4%

----------
- systemTested: human ether-à-go-go-related gene (hERG) potassium channel (human, UniProt Q12809);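 note: peak tail current of the secondary pulse compared with the same well before compound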
- assayNotes: primary screen, population patch clamp on CHO cells stably expressing hERG; higher = less effect of the substance
Hit rate of the full screen: of about 310,000 compounds, about 14,000 (4.5%) showed an effect of 50% or more. The effect is printed as a negative number. The entries come from a sample that favours strong results as a whole.
Listed next: entries and their corresponding hERG current change (%, negative = inhibition) at 10uM.
// units = %; emit number, no label

Below: 3 compounds and their reported hERG current change (%, negative = inhibition) at 10uM.
1. COc1ccc(C2/C(=C(/O)c3ccc(C)cc3)C(=O)C(=O)N2C)cc1 (stereo not drawn) | -2.36
2. Cc1ccc(C)c(NC(=O)CN(C)C(=O)[C@@H](NC(=O)c2ccc(C(C)(C)C)cc2)C(C)C)c1 | -16.5
3. Cc1ccc(C(=O)N(CN2CCCC2=O)c2ccccc2)cc1 | -1.3

Inquiry: hERG current change (%, negative = inhibition) at 10uM for O=C(CSc1nc2c(c(=O)n1-c1ccc(F)cc1)SCC2)NCC1CCCO1 (stereo not drawn) ?
Reply text: -2.45

Inquiry: // returns reported hERG current change (%, negative = inhibition) at 10uM for input O=C(CSc1nc2c(c(=O)n1-c1ccc(Cl)cc1)SCC2)NCC1CCCO1 (stereo not drawn)
Reply text: -34.5

Inquiry: Recorded hERG current change (%, negative = inhibition) at 10uM of O=C(CSc1nnc(-c2cccs2)n1-c1ccccc1)NCC1CCCO1 (stereo not drawn) , please.
Reply text: -74.1

Inquiry: Sample CCOC(=O)C1(CCOC)CCN(Cc2cccc(OCc3ccccc3)c2)CC1 — what was its hERG current change (%, negative = inhibition) at 10uM?
Reply text: -42.4

Inquiry: So what does the record say about hERG current change (%, negative = inhibition) at 10uM for Cc1nnc(SCC(=O)NCC2CCCO2)n1-c1ccccc1 (stereo not drawn) ?
Reply text: -4.28

Inquiry: Please look up its hERG current change (%, negative = inhibition) at 10uM: O=C(CSc1nnc(-c2cccs2)n1C1CC1)NCC1CCCO1 (stereo not drawn)
Reply text: -0.536
